Where do the numbers come from? From PubChem BioAssay (NCI).

Test system: ACHN renal
Experiment: NCI tumour cell line growth inhibition, 48 h
ASSAY_ENDPOINT: TGI

{"COMPOUND": "N#CCc1nc(-c2cc3ccccc3oc2=O)cs1", "ENDPOINT_RESULT": "> 100 µM"}
{"COMPOUND": "O=C1CSC(c2cc3cc(Br)ccc3nc2Cl)N1c1ccc(Cl)cc1 (centres undefined)", "ENDPOINT_RESULT": "> 100 µM"}
{"COMPOUND": "O=C1NC(=NCc2cccs2)O/C1=C\\c1ccc2ncccc2c1", "ENDPOINT_RESULT": "21.5 µM"}
{"COMPOUND": "COC(=O)N/N=c1\\cc(C(=O)Nc2ccc(C)c(C)c2)oc2cc(O)ccc12", "ENDPOINT_RESULT": "> 100 µM"}
{"COMPOUND": "COC1=CC(=O)C(O)=C(CC2(C)C(C)CCC3(C)C2CCCC3(C)C)C1=O (centres undefined)", "ENDPOINT_RESULT": "29.5 µM"}
{"COMPOUND": "S=c1[nH]nc(Cn2c3ccc(Br)cc3c3nc4ccccc4nc32)o1", "ENDPOINT_RESULT": "> 100 µM"}
{"COMPOUND": "CC(C)(C)C1CC[C@H]2c3c([nH]c4ccccc34)[C@H]3C(=O)N(c4ccc(F)cc4)C(=O)[C@H]3[C@H]2C1 (some centres undefined)", "ENDPOINT_RESULT": "27.2 µM"}
{"COMPOUND": "Oc1c(Br)cc(Cl)cc1C(c1cc(Cl)cc(Br)c1O)C(Cl)(Cl)Cl", "ENDPOINT_RESULT": "9.81 µM"}
{"COMPOUND": "CC[C@]12C=CCN3CC[C@@]4(c5ccc(OC)cc5N(C)[C@H]4[C@@](O)(C(=O)OC)[C@@H]1OC(=O)CCCN1CCN(CCCC(=O)O[C@@H]4[C@]5(CC)C=CCN6CC[C@@]7(c8ccc(OC)cc8N(C)[C@H]7[C@@]4(O)C(=O)OC)[C@@H]65)CC1)[C@@H]32", "ENDPOINT_RESULT": "2.07 µM"}
